- System: S. mansoni juvenile forms
- assay.procedure: Speed-of-action assay in juvenile forms
- Type: cell-based, Schistosoma mansoni
- recorded.conditions: juvenile forms, 48 h, 1 μM
Give Percentage of effect for every item shown.
One number for each entry, in %.

CC#Cc1ccc(C(=O)Nc2ccc(C3CC3N)cc2)cc1.Cl (centres unmarked) [Compound 18] ... 34.62

# per-item lookup of Percentage of effect; items listed below
1. C#Cc1ccc(C(=O)Nc2ccc(C3CC3N)cc2)cc1 (centres unmarked) [MC3935, reference compound]
2. CCCc1ccc(C(=O)Nc2ccc(C3CC3N)cc2)cc1.Cl (centres unmarked) [Compound 15]
3. NC1CC1c1ccc(NC(=O)c2ccc(-c3ccccc3)cc2)cc1 (centres unmarked) [Compound 2]
4. Cl.NC1CC1c1ccc(NC(=O)c2ccc(C#CC3CC3)cc2)cc1 (centres unmarked) [Compound 19]

# output
1. 26.92
2. 34.62
3. 32.69
4. 36.54

Values were extracted from paper PMC12340956.
